Tested on: WPMY1-ACTB-RAB5A
Experiment: lowest phenotypically active concentration; higher = less potent
Details: treatment time: 24 h
Where a name gives a salt, the structure may show the parent alone.
assay.metric: lowest phenotypically active concentration (µM)
Field format: number, assumed µM, no unit text.

Recorded results for 5 compounds are shown here.
compound	target	measured.number
COc1c(Nc2cc(C)[nH]n2)nc(Sc2ccc(S(=O)(=O)Cc3cccc([N+](=O)[O-])c3F)cc2F)nc1N1CCOCC1	WPMY1-ACTB-RAB5A	1
CCCC1(CCC)CCC2(CCN(CCCN(CC)CC)C2)CC1 [Atiprimod dihydrochloride]	WPMY1-ACTB-RAB5A	1
Nc1cccc(-c2cc3c(Oc4cccc(O)c4)ncnc3[nH]2)c1	WPMY1-ACTB-RAB5A	3
CC(C)C(=O)Nc1ncc(-c2cc(C(F)F)nn2-c2c(Cl)cccc2Cl)s1	WPMY1-ACTB-RAB5A	9
CCCc1cc(C)n(C)c(=O)c1CN(C)C(=O)c1cc(-c2ccc(N3CCN(C(C)C)CC3)nc2)cc2c1cnn2C(C)C	WPMY1-ACTB-RAB5A	3

Now consider a different compound.
**Query** Requested read-out lowest phenotypically active concentration, target or system WPMY1-ACTB-RAB5A, entry `CCN1CCN(c2cc(-c3ccc(F)cc3)c3c(n2)CCCCCC3)CC1`
**Result** 9
